Reference source: paper PMC7687008

Target: LAT1/LAT2 (System L transporters) in BeWo-CTB cells (Homo sapiens, UniProt Q01650)
Sequence (Q01650 whole entry): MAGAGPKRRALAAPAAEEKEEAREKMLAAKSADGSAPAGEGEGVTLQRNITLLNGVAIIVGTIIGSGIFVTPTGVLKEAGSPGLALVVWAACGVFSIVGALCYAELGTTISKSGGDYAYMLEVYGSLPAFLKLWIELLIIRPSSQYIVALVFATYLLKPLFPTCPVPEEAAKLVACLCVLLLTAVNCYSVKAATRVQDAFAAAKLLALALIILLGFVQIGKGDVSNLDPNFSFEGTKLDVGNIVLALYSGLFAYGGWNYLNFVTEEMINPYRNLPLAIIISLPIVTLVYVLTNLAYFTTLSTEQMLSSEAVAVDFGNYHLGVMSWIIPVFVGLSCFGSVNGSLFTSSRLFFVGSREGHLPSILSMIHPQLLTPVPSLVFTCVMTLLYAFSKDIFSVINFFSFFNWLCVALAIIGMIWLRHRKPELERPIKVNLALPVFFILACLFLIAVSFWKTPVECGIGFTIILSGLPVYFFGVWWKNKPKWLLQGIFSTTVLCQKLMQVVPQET
Sequence (P08195 103-630 partner): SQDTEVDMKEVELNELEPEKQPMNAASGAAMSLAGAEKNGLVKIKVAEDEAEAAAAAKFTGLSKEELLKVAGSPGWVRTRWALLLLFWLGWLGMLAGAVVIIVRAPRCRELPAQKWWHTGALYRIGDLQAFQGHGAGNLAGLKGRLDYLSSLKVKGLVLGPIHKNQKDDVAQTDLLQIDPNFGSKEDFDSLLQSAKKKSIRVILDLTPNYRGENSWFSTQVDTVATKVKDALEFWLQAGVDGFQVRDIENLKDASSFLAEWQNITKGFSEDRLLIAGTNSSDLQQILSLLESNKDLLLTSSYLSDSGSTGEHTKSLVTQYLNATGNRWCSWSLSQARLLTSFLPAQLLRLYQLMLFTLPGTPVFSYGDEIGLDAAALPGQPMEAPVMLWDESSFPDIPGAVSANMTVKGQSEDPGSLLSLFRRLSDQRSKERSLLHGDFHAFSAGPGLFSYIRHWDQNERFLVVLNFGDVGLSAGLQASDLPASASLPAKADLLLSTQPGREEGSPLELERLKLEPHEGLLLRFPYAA
Experiment: Leucine uptake inhibition in BeWo-CTB (undifferentiated BeWo cells), Na+-free buffer, 3H-leucine
Format: cell-based
Conditions: read-out: EC50 of leucine uptake inhibition; BeWo-CTB; 167 µmol/L leucine; 3 min; Na+-free Hank's buffer
property label: pEC50
Scale explanation: pEC50 corresponds to minus log10 of a concentration expressed in moles per litre.

Please report the recorded pEC50 for NC1(C(=O)O)CC2CCC1C2 (stereo not shown) .
3.15

---

Parameter Top of dose-response fit (leucine uptake): see the listing below.
Biological target: LAT1/LAT2 (System L transporters) in BeWo-CTB cells (Homo sapiens)
Assay: Leucine uptake inhibition in BeWo-CTB (undifferentiated BeWo cells), Na+-free buffer, 3H-leucine
Assay type: cell-based
Details: BeWo-CTB; four-parameter fit
Response body: numeric value in nmol/mg protein, unit text excluded.

Example entries begin here.
Nc1cc(COc2c(Cl)cc(C[C@H](N)C(=O)O)cc2Cl)c2oc(-c3ccccc3)nc2c1 :: 3.888
NC1(C(=O)O)CC2CCC1C2 (stereo not shown) :: 5.305
COc1ccc(-c2nc3cc(N)cc(COc4c(Cl)cc(C[C@H](N)C(=O)O)cc4Cl)c3o2)cc1 :: 2.673

Continue with the molecule presented below.
Please report the recorded Top of dose-response fit (leucine uptake) for CN(C)c1ccc(-c2cccc(Oc3cccc(C[C@H](N)C(=O)O)c3)c2)cn1 .
4.066
